Ref: patent US8129371B2

target: PI3K (Homo sapiens); construct: PI3 Kinase α IC50; other: PI3 Kinase α; other: PI3 Kinase α isoform, fluorescence polarization; test: Fluorescence polarization assay for PI3K; type: biochemical; conditions: PI3 Kinase α; read-out: PI3 Kinase α IC50
Sequence (P42336 whole entry, canonical isoform): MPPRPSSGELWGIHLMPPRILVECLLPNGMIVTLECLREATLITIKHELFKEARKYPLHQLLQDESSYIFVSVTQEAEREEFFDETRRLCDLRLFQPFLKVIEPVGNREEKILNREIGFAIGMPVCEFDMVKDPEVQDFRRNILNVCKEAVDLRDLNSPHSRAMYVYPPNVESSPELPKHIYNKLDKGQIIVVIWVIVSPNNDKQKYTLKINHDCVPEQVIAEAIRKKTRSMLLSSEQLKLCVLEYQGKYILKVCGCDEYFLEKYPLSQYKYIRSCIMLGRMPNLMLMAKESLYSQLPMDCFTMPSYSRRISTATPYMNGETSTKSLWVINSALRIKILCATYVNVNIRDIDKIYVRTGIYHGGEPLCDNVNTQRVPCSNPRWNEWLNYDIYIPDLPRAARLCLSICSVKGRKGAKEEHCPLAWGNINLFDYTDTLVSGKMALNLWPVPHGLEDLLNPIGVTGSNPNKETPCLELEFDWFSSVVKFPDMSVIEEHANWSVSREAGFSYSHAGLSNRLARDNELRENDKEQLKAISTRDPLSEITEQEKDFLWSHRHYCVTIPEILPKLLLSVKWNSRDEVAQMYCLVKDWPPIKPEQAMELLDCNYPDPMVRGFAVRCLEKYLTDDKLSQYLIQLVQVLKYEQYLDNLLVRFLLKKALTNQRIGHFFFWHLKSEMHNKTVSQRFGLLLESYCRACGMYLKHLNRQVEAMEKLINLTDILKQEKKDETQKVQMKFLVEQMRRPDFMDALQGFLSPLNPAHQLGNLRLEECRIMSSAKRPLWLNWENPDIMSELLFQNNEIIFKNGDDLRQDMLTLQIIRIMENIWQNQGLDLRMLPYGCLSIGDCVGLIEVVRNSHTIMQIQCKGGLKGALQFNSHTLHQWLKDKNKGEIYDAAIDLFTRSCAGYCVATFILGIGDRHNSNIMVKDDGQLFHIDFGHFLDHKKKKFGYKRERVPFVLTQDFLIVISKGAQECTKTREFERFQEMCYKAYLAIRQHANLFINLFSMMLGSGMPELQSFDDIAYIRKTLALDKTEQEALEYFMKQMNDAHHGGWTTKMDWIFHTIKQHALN
Measure: IC50 (µM)
One number for each entry, in µM.

Example results:
Molecule | IC50, µM
CCOC(=O)Nc1ccc(-c2nc(N3CC4CCC(C3)O4)c3cnn(C4CCN(C(=O)OC)CC4)c3n2)cc1 [Example 111] | 3.35
O=C(Nc1ccc(-c2nc(N3CC4CCC(C3)O4)c3cnn(C4CCC5(CC4)OCCO5)c3n2)cc1)NC1CC1 [Example 126] | 12

Input line: State, for PI3K (Homo sapiens), measured IC50 of the molecule listed here: CCOC(=O)N1CCC(n2ncc3c(N4CC5CCC(C4)O5)nc(-c4ccc(NC(=O)NC5CCN(C)CC5)cc4)nc32)CC1 [Example 36]
Output line: 6.21
